# Test system: UACC-257 melanoma
# Experiment: NCI tumour cell line growth inhibition, 48 h

{"columns": ["Compound", "TGI"],
 "data": [
  ["[N-]=[N+]=C1C(=O)C2CC3CC(C2)CC1C3", "> 100 µM"],
  ["COc1ccc(C(=O)c2[nH]c(Nc3ccc(Cl)cc3)c(C(=S)Nc3ccccc3)c2N)cc1", "> 100 µM"],
  ["CC(C)c1c2[nH]c3ccccc3c2c(C(C)C)c2[nH]c3ccccc3c12", "> 100 µM"],
  ["CCNC1=C(NC(=O)CC)C(=O)c2ccccc2C1=O", "> 100 µM"],
  ["O=C1NC(=S)N(c2ccccc2)C1=O", "> 100 µM"],
  ["c1ccc2c3c([nH]c2c1)C1CCCN1CC3 (centres undefined)", "> 10 µM"],
  ["COc1ccc(OC)c(Cn2cc3c(c2)-c2oncc2CC3)c1", "> 82.4 µM"],
  ["O=C([CH-]C(=O)c1ccccc1)c1ccccc1.O=C([CH-]C(=O)c1ccccc1)c1ccccc1.[OH-].[OH-].[Ti+4]", "> 100 µM"],
  ["Cc1cc(N(CCC#N)CCC#N)ccc1/C=C1N=C(/C=C\\c2ccccc2)N(c2ccc(Cl)cc2)C\\1=O", "> 100 µM"]
]}

Values compiled from PubChem BioAssay (NCI).
